Test system: Plasmodium berghei
Experimental details: Screen against P. berghei liver stage (PbLuc), transformed with Luciferase, at 10uM
Assay type: functional, HepG2
Conditions: tested at 10 uM
Among all 69,000 compounds or so, about 8,600 (12%) showed an effect of 50% or more. The full list was thinned out, with strong results kept by preference.
Hi! Could you tag entries with INHIBITION below 30% as T, and those at or above as F? Much appreciated.

{"Compound": "Cc1cc(CN(C)C(=O)Nc2ccccc2C)no1", "Test target": "Plasmodium berghei", "Group label": "F"}
{"Compound": "CO[C@H]1CCN(c2ncc(F)cn2)[C@@H]2CN(Cc3ccco3)C[C@H]12", "Test target": "Plasmodium berghei", "Group label": "F"}
{"Compound": "COc1cc(F)c(NC(=O)N(C)CCNC(=O)N(C)C)cc1F", "Test target": "Plasmodium berghei", "Group label": "F"}
{"Compound": "Cc1cc(CN(C)C(=O)NCc2ccccn2)no1", "Test target": "Plasmodium berghei", "Group label": "T"}
{"Compound": "c1ccc(-n2cncn2)c(CNCCn2cccn2)c1", "Test target": "Plasmodium berghei", "Group label": "T"}
{"Compound": "CC(NC(=O)C1CCN(C(C)C)CC1)c1nncn1C1CCCC1 (centres undefined)", "Test target": "Plasmodium berghei", "Group label": "T"}
{"Compound": "COc1ccc(Cl)cc1C(=O)N(C)Cc1cc(C)on1", "Test target": "Plasmodium berghei", "Group label": "T"}
{"Compound": "Fc1cnc(N2CCO[C@H]3CN(CC4CCCC4)C[C@H]32)nc1", "Test target": "Plasmodium berghei", "Group label": "T"}
{"Compound": "COc1ccc(C(C)N(C)Cc2c(C3CC3)[nH]c3ncccc23)cc1 (centres undefined)", "Test target": "Plasmodium berghei", "Group label": "F"}
{"Compound": "O=C(C1CCOCC1)N1CCO[C@H]2[C@@H](OCC3CC3)CC[C@@H]21", "Test target": "Plasmodium berghei", "Group label": "T"}
{"Compound": "CC(NCCn1cccn1)c1cc(F)ccc1F (centres undefined)", "Test target": "Plasmodium berghei", "Group label": "F"}
{"Compound": "COc1ccc(F)cc1C(=O)N(C)Cc1cc(C)on1", "Test target": "Plasmodium berghei", "Group label": "F"}
{"Compound": "Cc1ccc(-c2n[nH]cc2CNCCn2cccn2)o1", "Test target": "Plasmodium berghei", "Group label": "F"}
{"Compound": "Cc1ccc(-c2nc(CNCCn3cccn3)cs2)o1", "Test target": "Plasmodium berghei", "Group label": "T"}
{"Compound": "Cc1ccc(NC(=O)c2ccc(=O)n(CC(=O)NC3CCCC3)n2)cc1", "Test target": "Plasmodium berghei", "Group label": "T"}
{"Compound": "CC(NC(=O)C1CCCC1)c1nncn1C(C)C (centres undefined)", "Test target": "Plasmodium berghei", "Group label": "F"}
{"Compound": "Fc1cc(CNCCn2cccn2)ccc1-n1cncn1", "Test target": "Plasmodium berghei", "Group label": "F"}
{"Compound": "CCN1C[C@H]2[C@@H](C1)N(c1ncc(F)cn1)CC[C@H]2OC", "Test target": "Plasmodium berghei", "Group label": "F"}
{"Compound": "COc1cc(F)c(NC(=O)N(C)Cc2cc(C)on2)cc1F", "Test target": "Plasmodium berghei", "Group label": "F"}
{"Compound": "CC(C)C(=O)N1CCCC1C(=O)Nc1cc(C(F)(F)F)ccc1F (centres undefined)", "Test target": "Plasmodium berghei", "Group label": "T"}
{"Compound": "CSc1ccc(CN(CCO)C(=O)CCc2cccc(F)c2)cc1", "Test target": "Plasmodium berghei", "Group label": "T"}
